# experimental-target: JAK1 (Homo sapiens, UniProt P23458)
# Sequence (P23458 whole entry, species assumed): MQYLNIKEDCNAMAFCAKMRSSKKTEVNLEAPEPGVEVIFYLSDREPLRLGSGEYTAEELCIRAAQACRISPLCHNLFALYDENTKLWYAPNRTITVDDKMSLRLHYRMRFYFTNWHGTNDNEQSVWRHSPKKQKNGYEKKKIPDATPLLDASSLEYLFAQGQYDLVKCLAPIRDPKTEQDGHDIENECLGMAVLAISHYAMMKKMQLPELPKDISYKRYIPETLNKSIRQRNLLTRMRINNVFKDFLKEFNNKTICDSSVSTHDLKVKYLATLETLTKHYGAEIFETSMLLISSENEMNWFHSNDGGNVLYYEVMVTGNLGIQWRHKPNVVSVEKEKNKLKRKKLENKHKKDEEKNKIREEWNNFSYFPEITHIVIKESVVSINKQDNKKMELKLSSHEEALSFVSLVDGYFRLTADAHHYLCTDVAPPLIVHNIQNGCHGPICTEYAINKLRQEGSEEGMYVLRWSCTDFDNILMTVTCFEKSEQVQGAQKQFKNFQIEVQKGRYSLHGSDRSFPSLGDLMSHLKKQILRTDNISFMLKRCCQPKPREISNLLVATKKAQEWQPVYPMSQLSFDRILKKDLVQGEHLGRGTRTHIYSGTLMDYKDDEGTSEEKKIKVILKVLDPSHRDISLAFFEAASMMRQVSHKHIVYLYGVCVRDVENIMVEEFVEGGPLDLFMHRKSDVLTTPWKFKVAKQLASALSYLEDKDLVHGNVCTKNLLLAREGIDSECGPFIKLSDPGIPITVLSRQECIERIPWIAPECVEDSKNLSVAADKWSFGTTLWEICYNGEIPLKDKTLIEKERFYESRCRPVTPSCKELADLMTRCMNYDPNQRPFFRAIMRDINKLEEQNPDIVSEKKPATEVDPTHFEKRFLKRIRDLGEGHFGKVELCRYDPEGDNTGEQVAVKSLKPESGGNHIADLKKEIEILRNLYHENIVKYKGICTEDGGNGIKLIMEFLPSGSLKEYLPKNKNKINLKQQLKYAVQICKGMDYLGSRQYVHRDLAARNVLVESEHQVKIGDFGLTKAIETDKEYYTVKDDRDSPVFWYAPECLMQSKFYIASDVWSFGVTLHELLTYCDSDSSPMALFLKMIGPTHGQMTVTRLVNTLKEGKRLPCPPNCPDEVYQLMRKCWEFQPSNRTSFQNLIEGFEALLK
# procedure-details: Caliper Mobility Shift Assay, kinase inhibition
# Format: biochemical
# run-parameters: ATP by Km value
measurement-name: IC50 (nM)

smiles-record	observed-result
CCS(=O)(=O)N1CC(CC#N)(n2cc(-c3ncnc4[nH]ccc34)c3ccc(Br)cc32)C1	3.5

[P] CCS(=O)(=O)N1CC(CC#N)(n2cc(-c3ncnc4[nH]ccc34)c3ccc(Cl)cc32)C1
[Q] CCS(=O)(=O)N1CC(CC#N)(n2cc(-c3ncnc4[nH]ccc34)c3ccc(C)cc32)C1
[R] CCS(=O)(=O)N1CC(CC#N)(n2cc(-c3ncnc4[nH]ccc34)c3ccc(CC#N)cc32)C1
In: hey, can you rank those molecules up there by IC50? biggest number first please Please express your ranking as an ordered list of the labels.
Out: R, Q, P

Just for reference, patent US10385056B2 is where these values come from.
